Value source: patent US12098206B2

# Tested on: NIH3T3 cells
# Method Description: cells
# Assay type: cell-based, mouse
# Run Parameters: Mus musculus, NIH3T3, 72 h, read-out: Cot-duo IC50 (nM), complex with cot-duo (DAR4), or conjugate/free drug alone; NIH3T3 cells; without mPDGF-BB; 72 hours
Readout: IC50 (nM)
# value in nM; strip the unit string

Request: Which IC50 is reported for this compound? COC(=O)c1cc2c([nH]1)C(=O)C=C1N(C(=O)c3cc4cc(OC)c(OC)c(OC)c4[nH]3)C[C@H]3C[C@]123 [Free duocarmycin, duocarmycin, reference compound]
Result: 9.7
